pIC50: −log10 of the molar value.
Please consider the recorded pIC50 for EGFR (UniProt P00533) in what follows.

Consider the worked cases shown below.
>>> observed("C=CCN(c1ccc2NN(=Cc2c1)Cc3ccccn3)c4ncnc(Nc5cccc(NC(=O)C=C)c5)n4")
"> 4.30"
>>> observed("C=CCN(c1ncnc(Nc2cccc(NC(=O)C#CC)c2)n1)c1cc(Cl)ccc1C")
"> 4.30"
>>> observed("C=CC(=O)Nc1cccc(Nc2ncnc(N(C)c3cc(OC)c(OC)c(OCCN4CCOCC4)c3)n2)c1")
"> 4.30"

Input line: Requested field: pIC50. Item: C=CCN(c1ncnc(Nc2ccc(NC(=O)C=C)cc2)n1)C1CC1c1ccccc1 (stereo not drawn)
Output line: > 4.30

Input line: Requested field: pIC50. Item: C=CC(=O)Nc1cccc(Nc2ncnc(Nc3cccc4ccccc34)n2)c1
Output line: > 4.30

Input line: Requested field: pIC50. Item: C=CC(=O)Nc1ccc(Nc2ncnc(NN3CCCc4cc(Cl)ccc43)n2)cc1
Output line: > 4.30

The measurements presented in this section are drawn from the Kinase Knowledgebase extract (Sharma et al. 2016).
